Data credit: patent US20090291088A1

# system name: T1, human IGF-1R(1-902)-His10 (human, UniProt P08069 31-932)
# T1 construct: Cy5-labelled in tr-FRET; also called hIGF-1R-His10; IGF-1R-His
# assay comment: protein ELISA
Listing of recorded EC50 by entry.
Give the number; nM is assumed, so skip it.

Check out these entries, answers already filled in.
* P1G10.2B8 (antibody, IgG1, V domains shown, Murine hybridoma antibody, IgG1/k) VH: QIQLVQSGPDLKKPGETVKISCKASGYTFTNHGMNWVKQAPGKDLKWMGWINTNTGEPTYADDFKGRFAFSLETSASTAYLQINNLKNEDTATYFCASPLYYRNGRYFDVWGAGTTVTVSS VL: DIQMTQTTSSLSASLGDRVTISCRASQDISNYLNWYQQKPDGSVKLLIYYTSRLHSGVPSRFSGSGSGTDYSLTISNLEQEDIATYFCQQGKTLPWTFGGGTKLEIK | 0.075
* P1A2.2B11 (antibody, IgG2b, V domains shown, Murine hybridoma antibody, IgG2b/k) VH: QIQLVQSGPELKKPGETVKISCKASGYTFTNHGMNWVKQAPGKGLKWMGWNTSTGEPTYADDFKGRFAFSLETSASTAFLQINNLKNEDTASYFCASPLYYMYGRYIDVWGAGTAVTVSS VL: DIQMTQTTSSLSASLGDRVTISCRASQDISNYLNWYQQKPDGTIKLLIYYTSRLHSGVPSRFSGSGSGTDYSLTISNLEQEDFATYFCQQGKTLPWTFGGGTKLEIK | 0.023

Sample P1E2.3B12 (antibody, IgG2b, V domains shown, Murine hybridoma antibody, IgG2b/k; also called P1E2 (hybridoma)) VH: QVQLQQPGAELVKPGASVKLSCKASGYTFTSYWMHWVKQRPGQGLEWIGEINPTYGRSNYNEKFKSKATLTVDKSSSTAYMQLSSLTSEDSAVYYCARLVRLRYFDVWGAGTTVTVSS VL: DIVMTQAAFSNPVTLGTSASISCRSSKSLLHSNGITYLYWYLQKPGQSPQLLIYQMSNLASGVPDRFSSSGSGTDFTLRISRVEAEDVGVYYCAQNLELPYTFGGGTKLEIK — what was its EC50?
0.016

Field entry: P2A7.3E11 (antibody, IgG2a, V domains shown, Murine hybridoma antibody, IgG2a/k; also called muP2A7) VH: QVQLQQSGPELVKPGASVKMSCKASGNTFTDYVINWVKQRTGQGLEWIGEIYPGNENTYYNEKFKGKATLTADKSSNTAYMQLSSLTSEDSAVYFCARGIYYYGSRTRTMDYWGQGTSVTVSS VL: EVVLTQSPTAMAASPGEKITITCSASSTLSSNYLHWYQQKPGFSPKLLIYRTSNLASGVPGRFSGSGSGTSYSLTIGTMEAEDVATYYCQQGSSIPLTFGAGTKLELK
0.011
